System: Human MPZ
Sequence (P25189 30-153 limits assumed): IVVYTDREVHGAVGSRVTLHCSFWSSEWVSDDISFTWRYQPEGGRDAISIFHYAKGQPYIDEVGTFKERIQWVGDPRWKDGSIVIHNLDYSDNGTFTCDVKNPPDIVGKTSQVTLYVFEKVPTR
Test: Phage display library screening (Example 2, Python script analysis), binding to Human MPZ
Details: combined unique sequence count, Python/R script analysis
Label scheme for Count: lower level (below 40), middle level (40 to below 50), upper level (50 or more)

>>> print(df.to_string())
                                   substance      category
 0    TSPWELR (R3 Human MPZ-binding peptide)   upper level
 1       NASVPPK (Human MPZ-binding peptide)  middle level
 2       TTWPNTA (Human MPZ-binding peptide)  middle level
 3       MYHDSVS (Human MPZ-binding peptide)  middle level
 4     CPDAARNSC (Human MPZ-binding peptide)  middle level
 5     CLKQQTGDC (Human MPZ-binding peptide)   lower level
 6    SHSPGNK (R3 Human MPZ-binding peptide)   upper level
 7     CDIKDANSC (Human MPZ-binding peptide)   lower level
 8       HNQLLYT (Human MPZ-binding peptide)   lower level
 9       YPQARTS (Human MPZ-binding peptide)  middle level
10    KMAGHTV (R3 Human MPZ-binding peptide)   upper level
11    LSSPLSL (R3 Human MPZ-binding peptide)   upper level
12       FEHMAVT (Human MPZ-binding peptide)  middle level
13    TESLFPH (R3 Human MPZ-binding peptide)   upper level
14  GEWRARIDQDVS (Human MPZ-binding peptide)   upper level
15       NPTSEGA (Human MPZ-binding peptide)   lower level
